Give GI50 for every item shown.
Tested on: SF-295 CNS
Assay: NCI tumour cell line growth inhibition, 48 h

>>> result("COc1ccc2c(c1)/C(=C/c1c(-c3ccc(C)cc3)nc3sc(C)cn13)C(=O)N2")
"11 µM"
>>> result("CC(=O)O[C@H]1C(=O)[C@@]2(C)[C@H]([C@H](OC(=O)c3ccccc3)[C@]3(O)C[C@H](OC(=O)[C@H](OC(=O)CCC(=O)OC4CCC(S/N=C(N)/N=C(\\N)N(C)C)CC4)[C@@H](NC(=O)c4ccccc4)c4ccccc4)C(C)=C1C3(C)C)[C@]1(OC(C)=O)CO[C@@H]1C[C@@H]2O (stereo not given in full)")
"0.0116 µM"
>>> result("COc1cc(C(=O)O)ccc1NC(=O)[C@@H]1N[C@@H](CC(C)(C)C)[C@](C#N)(c2ccc(Cl)cc2F)[C@H]1c1cccc(Cl)c1F")
"2.78 µM"

// input: 5 compounds below; output: GI50 for each
1. CCSc1nc(=S)[nH]c2[nH]ncc12
2. O=[N+]([O-])c1ccccc1/C=C/C=C1c2ccccc2-c2ccccc21
3. C=C1C(=O)O[C@H]2[C@H]1CC/C(COC(=O)N[C@@H](Cc1c[nH]c3ccccc13)C(=O)OC)=C\CC[C@@]1(C)O[C@@H]21
4. COc1cc2c3c(n(CCCn4ccnc4)c(=O)c2cc1OC)-c1ccccc1C3=O
5. Cc1c(N(C(=O)c2cc(-c3cc(Cl)ccc3C(=O)N3Cc4ccccc4C[C@H]3CN3CCOCC3)n(C)c2C)c2ccc(O)cc2)cc(C#N)n1C

1. > 100 µM
2. > 100 µM
3. 9.4 µM
4. < 0.01 µM
5. 13.2 µM

// input: 2 compounds below; output: GI50 for each
1. O=C(c1cccs1)c1c(C(F)(F)F)n([O-])c2cc(C(F)(F)F)ccc2[n+]1=O
2. CCOC(=O)c1ccc2[nH]c(Cc3[nH]c4ccc(C(=O)OCC)cc4c3C)c(C)c2c1

1: 0.322 µM; 2: 1.42 µM
